test: Oral bioavailability in ICR mouse at 10 mg/kg measured upto 24 hrs by LC-MS/MS analysis; type: ADME, organism-based; conditions: in vivo
quantityKind: bioavailability

Tell me the measured bioavailability of C=CC(=O)Nc1ccccc1-c1ccc(NC(=O)Cc2ccc(S(=O)(=O)CC)cc2)cc1Cl , please.
12.7%

----------
assay: Volume of distribution at steady state in ICR mouse at 3 mg/kg, iv measured upto 24 hrs by LC-MS/MS analysis; format: ADME, organism-based; conditions: in vivo, read-out: Vdss
quantityKind: Vd (L/kg)
Write it as a number; the unit L/kg goes unstated.

Item C=CC(=O)Nc1ccccc1-c1ccc(NC(=O)Cc2ccc(S(=O)(=O)CC)cc2)cc1Cl has what recorded Vd?
0.75
